# study system: MMP2 (Homo sapiens, UniProt P08253)
# Sequence (P08253 110-660): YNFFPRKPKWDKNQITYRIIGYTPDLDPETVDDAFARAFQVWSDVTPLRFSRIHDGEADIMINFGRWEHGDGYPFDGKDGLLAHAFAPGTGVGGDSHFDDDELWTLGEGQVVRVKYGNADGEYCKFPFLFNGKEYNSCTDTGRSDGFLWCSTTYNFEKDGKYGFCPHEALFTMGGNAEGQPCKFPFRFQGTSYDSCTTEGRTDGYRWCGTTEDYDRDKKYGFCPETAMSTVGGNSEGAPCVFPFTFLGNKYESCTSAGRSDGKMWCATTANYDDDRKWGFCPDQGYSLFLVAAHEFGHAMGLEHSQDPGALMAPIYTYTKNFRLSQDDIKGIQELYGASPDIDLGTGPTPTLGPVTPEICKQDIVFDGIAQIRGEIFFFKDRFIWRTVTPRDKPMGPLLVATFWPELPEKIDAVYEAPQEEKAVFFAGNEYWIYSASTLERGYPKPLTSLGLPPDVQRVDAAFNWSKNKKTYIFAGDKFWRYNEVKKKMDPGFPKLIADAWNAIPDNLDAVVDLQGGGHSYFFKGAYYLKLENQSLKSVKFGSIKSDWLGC
quantity name: pIC50
Here pIC50 is given on a logarithmic scale as minus log10 of the concentration in mol/L.

# pIC50 lookup, item `NCCCOc1ccc(C[C@H](NS(=O)(=O)c2ccc(-c3ccccc3)cc2)C(=O)O)cc1`
5.92

Provenance of the data: paper PMC8879803
